target desc: ATR/ATRIP (Homo sapiens (Human))
Sequence (Q13535 whole entry): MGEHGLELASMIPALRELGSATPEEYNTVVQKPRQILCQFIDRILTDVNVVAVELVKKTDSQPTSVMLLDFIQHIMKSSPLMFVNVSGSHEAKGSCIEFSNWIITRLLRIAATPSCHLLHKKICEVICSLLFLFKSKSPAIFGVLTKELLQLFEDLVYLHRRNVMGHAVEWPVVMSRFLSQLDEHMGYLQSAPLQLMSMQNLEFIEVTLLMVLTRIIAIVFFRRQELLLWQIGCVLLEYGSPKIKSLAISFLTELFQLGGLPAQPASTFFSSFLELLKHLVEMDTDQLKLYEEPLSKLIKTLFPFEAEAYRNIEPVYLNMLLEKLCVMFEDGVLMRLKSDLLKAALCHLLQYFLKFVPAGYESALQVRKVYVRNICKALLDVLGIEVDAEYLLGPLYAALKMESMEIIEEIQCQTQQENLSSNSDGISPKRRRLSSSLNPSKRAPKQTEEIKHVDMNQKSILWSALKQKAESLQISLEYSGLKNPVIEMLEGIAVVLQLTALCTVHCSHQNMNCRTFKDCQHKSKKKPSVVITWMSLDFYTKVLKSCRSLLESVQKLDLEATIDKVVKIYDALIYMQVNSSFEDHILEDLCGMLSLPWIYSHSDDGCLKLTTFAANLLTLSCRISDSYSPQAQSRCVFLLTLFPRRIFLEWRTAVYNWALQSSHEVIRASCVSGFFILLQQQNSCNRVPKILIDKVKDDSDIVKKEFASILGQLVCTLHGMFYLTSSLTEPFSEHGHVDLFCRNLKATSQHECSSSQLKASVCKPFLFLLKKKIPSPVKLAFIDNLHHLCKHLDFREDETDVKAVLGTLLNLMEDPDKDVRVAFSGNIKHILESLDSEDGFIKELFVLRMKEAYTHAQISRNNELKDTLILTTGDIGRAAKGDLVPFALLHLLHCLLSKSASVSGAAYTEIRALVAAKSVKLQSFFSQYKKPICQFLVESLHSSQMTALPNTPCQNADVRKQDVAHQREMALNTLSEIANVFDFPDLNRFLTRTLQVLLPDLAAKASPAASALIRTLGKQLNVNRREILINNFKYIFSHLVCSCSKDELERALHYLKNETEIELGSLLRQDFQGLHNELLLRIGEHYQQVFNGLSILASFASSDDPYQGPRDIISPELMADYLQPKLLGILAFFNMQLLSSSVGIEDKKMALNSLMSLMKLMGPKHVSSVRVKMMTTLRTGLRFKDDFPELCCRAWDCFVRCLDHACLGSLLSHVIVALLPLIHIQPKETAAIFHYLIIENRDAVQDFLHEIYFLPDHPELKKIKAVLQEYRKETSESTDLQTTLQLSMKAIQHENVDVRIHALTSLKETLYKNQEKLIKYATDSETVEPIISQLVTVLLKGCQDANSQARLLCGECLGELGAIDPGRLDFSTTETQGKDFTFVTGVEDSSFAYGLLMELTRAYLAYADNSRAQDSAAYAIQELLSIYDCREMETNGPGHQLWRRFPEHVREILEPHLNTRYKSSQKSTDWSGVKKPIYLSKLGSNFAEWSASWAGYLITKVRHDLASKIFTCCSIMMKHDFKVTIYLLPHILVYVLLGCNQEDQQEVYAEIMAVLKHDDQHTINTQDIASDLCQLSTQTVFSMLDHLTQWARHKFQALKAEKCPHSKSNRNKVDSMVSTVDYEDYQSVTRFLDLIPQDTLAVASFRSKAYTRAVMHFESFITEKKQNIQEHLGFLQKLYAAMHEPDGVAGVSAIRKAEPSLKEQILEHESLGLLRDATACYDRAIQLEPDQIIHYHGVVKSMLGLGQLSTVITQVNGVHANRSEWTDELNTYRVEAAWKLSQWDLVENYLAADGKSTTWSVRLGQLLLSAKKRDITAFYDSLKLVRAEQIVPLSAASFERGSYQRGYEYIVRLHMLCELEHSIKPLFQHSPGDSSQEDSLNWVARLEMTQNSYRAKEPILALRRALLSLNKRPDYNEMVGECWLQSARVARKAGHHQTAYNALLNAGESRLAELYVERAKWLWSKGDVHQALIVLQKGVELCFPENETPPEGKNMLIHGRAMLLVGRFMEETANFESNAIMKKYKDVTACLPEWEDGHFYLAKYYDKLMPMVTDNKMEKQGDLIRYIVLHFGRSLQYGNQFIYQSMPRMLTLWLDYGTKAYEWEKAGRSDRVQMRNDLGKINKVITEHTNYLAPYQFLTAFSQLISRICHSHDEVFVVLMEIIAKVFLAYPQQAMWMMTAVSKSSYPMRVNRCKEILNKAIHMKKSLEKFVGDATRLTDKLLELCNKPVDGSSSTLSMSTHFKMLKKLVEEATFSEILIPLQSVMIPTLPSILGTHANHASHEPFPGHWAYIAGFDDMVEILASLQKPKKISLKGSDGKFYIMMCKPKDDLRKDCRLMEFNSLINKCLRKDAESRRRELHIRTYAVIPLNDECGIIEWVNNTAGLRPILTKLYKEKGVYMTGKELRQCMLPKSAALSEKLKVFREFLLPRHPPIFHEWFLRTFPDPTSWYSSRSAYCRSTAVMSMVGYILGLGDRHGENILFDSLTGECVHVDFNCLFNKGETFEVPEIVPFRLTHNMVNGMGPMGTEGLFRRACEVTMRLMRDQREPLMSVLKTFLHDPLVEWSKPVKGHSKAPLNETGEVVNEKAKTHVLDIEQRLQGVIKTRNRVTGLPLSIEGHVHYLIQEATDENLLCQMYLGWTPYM
Sequence (Q8WXE1 whole entry partner): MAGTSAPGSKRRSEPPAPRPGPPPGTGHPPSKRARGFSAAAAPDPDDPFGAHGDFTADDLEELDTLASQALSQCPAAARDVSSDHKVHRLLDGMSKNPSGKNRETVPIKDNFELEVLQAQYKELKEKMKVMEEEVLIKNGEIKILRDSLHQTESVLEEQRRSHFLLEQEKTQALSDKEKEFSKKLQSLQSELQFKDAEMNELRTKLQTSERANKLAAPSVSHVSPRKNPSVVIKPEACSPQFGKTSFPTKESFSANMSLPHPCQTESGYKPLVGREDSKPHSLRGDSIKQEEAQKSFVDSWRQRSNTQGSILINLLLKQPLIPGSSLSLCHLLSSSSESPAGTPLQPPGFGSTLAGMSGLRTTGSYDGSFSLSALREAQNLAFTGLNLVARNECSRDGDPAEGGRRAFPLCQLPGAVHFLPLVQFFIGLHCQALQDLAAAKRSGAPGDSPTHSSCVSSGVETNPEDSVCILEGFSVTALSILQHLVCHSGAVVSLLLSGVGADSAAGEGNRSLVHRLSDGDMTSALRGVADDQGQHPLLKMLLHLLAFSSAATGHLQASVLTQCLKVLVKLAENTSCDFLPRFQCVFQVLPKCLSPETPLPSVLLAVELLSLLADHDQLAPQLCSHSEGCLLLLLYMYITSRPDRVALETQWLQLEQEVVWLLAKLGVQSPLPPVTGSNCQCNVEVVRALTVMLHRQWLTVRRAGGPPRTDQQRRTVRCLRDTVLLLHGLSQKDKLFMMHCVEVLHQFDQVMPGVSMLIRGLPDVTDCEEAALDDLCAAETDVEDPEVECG
method: ATR/ATRIP kinase assay (TR-FRET, p53 Ser15 phosphorylation)
setup conditions: 0.5 μM ATP, 50 nM p53
pIC50: −log10 of the molar value.
reported metric: pIC50

(P) C[C@@H]1COCCN1c1cc(-c2cccnc2C(F)(F)F)c2c(n1)c(-c1cc[nH]n1)nn2C [Compound 66]
(Q) Cc1ncccc1-c1cc(N2CCOC[C@H]2C)nc2c(-c3cc[nH]n3)nn(C)c12 [Compound 4]
Dear colleague, could you let me know whether P or Q has the lower recorded pIC50? Thanks. Please respond with the label that marks your chosen entry.
P

(a) C[C@@H]1COCCN1c1cc(-c2ccc(CO)cc2)c2c(n1)c(-c1cc[nH]n1)nn2C [Compound 52]
(b) Cc1nc(S(C)(=O)=O)ccc1-c1cc(N2CCOC[C@H]2C)nc2c(-c3cc(C(F)(F)F)n[nH]3)nn(C)c12 [Compound 74]
(c) C[C@@H]1COCCN1c1ccc2c(n1)c(-c1cc[nH]n1)nn2-c1ccc(C#N)cc1 [Compound 60]
(d) C[C@@H]1COCCN1c1ccc2c(n1)c(-c1cc[nH]n1)nn2-c1cccc(S(C)(=O)=O)c1 [Compound 47]
Task for the reader: rank each entry by its pIC50, from the minimum upward. Put the labels in the order asked and list them.
d, c, b, a
(d: 7.05, c: 7.49, b: 7.77, a: 8.85)

(1) Cc1cc(-c2n[nH]c3c(-c4ccc(S(C)(=O)=O)nc4C)cc(N4CCOC[C@H]4C)nc23)[nH]n1 [Compound 13]
(2) C[C@@H]1COCCN1c1ccc2c(n1)c(-c1cc[nH]n1)nn2Cc1cccc(S(C)(=O)=O)c1 [Compound 57]
Please tell me which of the two, 1 or 2 , has the higher reported pIC50 value. Please respond with the label that marks your chosen entry.
1
(1: 8.85, 2: 6.82)

(1) Cc1nc(S(C)(=O)=O)ccc1-c1cc(N2CCOC[C@H]2C)nc2c(-c3cc[nH]n3)nn(C)c12 [Compound 11]
(2) C[C@@H]1COCCN1c1cc(-c2ccc([S+](C)[O-])cc2)c2c(n1)c(-c1cc[nH]n1)nn2C (stereo partly drawn) [Compound 5]
(3) C[C@@H]1COCCN1c1cc(-c2cncn2C)c2c(n1)c(-c1cc[nH]n1)nn2C [Compound 42]
Please rank these compounds by pIC50 in descending order. Put the labels in the order asked and list them.
3, 1, 2

Data origin: patent US12371430B2
